# tested system: Peroxisome proliferator-activated receptor gamma (Homo sapiens) (UniProt P37231)
# Sequence (P37231 whole entry, looked up): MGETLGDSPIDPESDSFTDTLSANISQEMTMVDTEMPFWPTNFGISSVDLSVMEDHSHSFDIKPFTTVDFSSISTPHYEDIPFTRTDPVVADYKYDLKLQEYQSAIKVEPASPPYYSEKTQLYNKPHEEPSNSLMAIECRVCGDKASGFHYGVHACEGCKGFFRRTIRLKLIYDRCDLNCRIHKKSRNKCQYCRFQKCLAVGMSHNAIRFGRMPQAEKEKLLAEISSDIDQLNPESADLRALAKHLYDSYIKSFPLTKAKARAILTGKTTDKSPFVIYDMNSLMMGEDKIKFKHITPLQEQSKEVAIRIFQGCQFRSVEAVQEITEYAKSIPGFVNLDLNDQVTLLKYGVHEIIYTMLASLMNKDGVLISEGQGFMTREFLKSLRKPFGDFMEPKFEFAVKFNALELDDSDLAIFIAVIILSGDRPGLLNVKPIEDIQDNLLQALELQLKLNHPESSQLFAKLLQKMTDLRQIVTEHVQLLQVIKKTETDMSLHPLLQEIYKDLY
# procedure text: qHTS assay to identify small molecule agonists of the peroxisome proliferator-activated receptor gamma (PPARg) signaling pathway (AID 743094); further: on the % scale 0 is the no-effect control and ±100 the full control effect
# study conditions: HEK293H PPARg-UAS-bla, beta-lactamase FRET ratio, 17 h; series mostly up to 57 µM
Records with an inconclusive call do not appear. Activity calls are given as the source filed them. The call rests on the fitted dose curve; in most records, active means well fitted activation curve with a large enough effect in the signal ratio in the repeat runs (not every such curve was filed as active); inconclusive means weak or mixed curves, or effect the other way; inactive means no such curve, though single readings can be large or run the other way; the % refers to the signal ratio.
In this exercise, the only acceptable responses are label 1 (active), label 0 (inactive)

Use the examples below as a reference point.
{"columns": ["molecule", "tested system", "class name"],
 "data": [
  ["CC[N+](CC)(CC)CCOC(=O)C(C1CCCC1)C1CCCC1", "Peroxisome proliferator-activated receptor gamma (Homo sapiens) (UniProt P37231)", "label 0"],
  ["O=[N+]([O-])c1ccc(O)cc1C(F)(F)F", "Peroxisome proliferator-activated receptor gamma (Homo sapiens) (UniProt P37231)", "label 0"],
  ["Cc1cc(C(C)(C)C)cc(C)c1CC1=NCCN1", "Peroxisome proliferator-activated receptor gamma (Homo sapiens) (UniProt P37231)", "label 0"]
]}

How did this test come out for Clc1nnc(Cl)c2ccccc12 ? label 0

What did the test return for O=C(O)CCN(C1(C(=O)NO)CCCC1)S(=O)(=O)c1ccc(Oc2ccc(F)cc2)cc1 ? label 0

For COc1cc(C)ccc1O , which call appears in the assay record? label 0

Test call, this molecule: COc1ccc2cc1Oc1ccc(cc1)C[C@H]1c3c(cc4c(c3Oc3cc5c(cc3OC)CCN(C)[C@@H]5C2)OCO4)CCN1C label 0

Per the records of this test, what outcome belongs to Nc1ccc(C(=O)O)c(O)c1 ? label 0

====

# tested system: Cytochrome P450 2C9 (Homo sapiens) (UniProt P11712)
# Sequence (P11712 whole entry, looked up): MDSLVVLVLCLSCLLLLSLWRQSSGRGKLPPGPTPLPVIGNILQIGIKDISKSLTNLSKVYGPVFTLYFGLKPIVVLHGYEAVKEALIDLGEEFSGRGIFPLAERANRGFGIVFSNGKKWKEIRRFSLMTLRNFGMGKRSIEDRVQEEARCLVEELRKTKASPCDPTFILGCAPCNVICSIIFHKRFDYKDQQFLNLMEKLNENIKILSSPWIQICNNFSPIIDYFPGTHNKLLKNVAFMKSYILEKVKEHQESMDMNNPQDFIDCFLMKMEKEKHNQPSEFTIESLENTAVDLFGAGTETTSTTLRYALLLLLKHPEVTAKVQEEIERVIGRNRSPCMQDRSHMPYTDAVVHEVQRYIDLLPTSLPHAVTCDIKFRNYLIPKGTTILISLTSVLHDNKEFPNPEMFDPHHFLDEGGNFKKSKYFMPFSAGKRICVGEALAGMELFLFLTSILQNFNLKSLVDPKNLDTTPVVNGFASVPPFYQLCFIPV
# procedure text: Cytochrome P450 Family 2 Subfamily C Member 9 (CYP2C9) small molecule antagonists: luciferase reporter qHTS assay (AID 1671198); further: nearly all actives have a fitted effect of over 50% in size
# study conditions: P450-Glo CYP2C9 enzyme assay, luciferin luminescence; series mostly up to 115 µM
Inconclusive results are not listed. Active and inactive are the calls of the source. Calls come from the whole dose curve; as a rule, active = well fitted inhibition curve with a large enough effect in the repeat runs; inconclusive = weak or mixed curves; inactive = no such curve, though single readings can be large or run the other way.
Use one of these outcomes when replying: active, inactive

Some entries whose results are on file:
{"columns": ["compound", "class name"],
 "data": [
  ["Cc1cc(C(C#N)c2ccc(Cl)cc2)c(Cl)cc1NC(=O)c1cc(I)cc(I)c1O (configuration not stated)", "active"],
  ["[Cl][Pt-2]([Cl])([Cl])[Cl]", "active"],
  ["CCC(COC(=O)CCS)(COC(=O)CCS)COC(=O)CCS", "active"],
  ["NC(=S)NC(N)=S", "active"],
  ["O=C1CCc2cc(OCCCCc3nnnn3C3CCCCC3)ccc2N1", "active"]
]}

# outcome recorded in this test, key = CC[C@H](C)COC(=O)/C=C/c1ccc(N=Cc2ccc(OC)cc2)cc1 active

What call does the record list for Oc1ccccc1O ? inactive

====

# tested system: Estrogen receptor (Homo sapiens) (UniProt P03372)
# Sequence (P03372 whole entry, looked up): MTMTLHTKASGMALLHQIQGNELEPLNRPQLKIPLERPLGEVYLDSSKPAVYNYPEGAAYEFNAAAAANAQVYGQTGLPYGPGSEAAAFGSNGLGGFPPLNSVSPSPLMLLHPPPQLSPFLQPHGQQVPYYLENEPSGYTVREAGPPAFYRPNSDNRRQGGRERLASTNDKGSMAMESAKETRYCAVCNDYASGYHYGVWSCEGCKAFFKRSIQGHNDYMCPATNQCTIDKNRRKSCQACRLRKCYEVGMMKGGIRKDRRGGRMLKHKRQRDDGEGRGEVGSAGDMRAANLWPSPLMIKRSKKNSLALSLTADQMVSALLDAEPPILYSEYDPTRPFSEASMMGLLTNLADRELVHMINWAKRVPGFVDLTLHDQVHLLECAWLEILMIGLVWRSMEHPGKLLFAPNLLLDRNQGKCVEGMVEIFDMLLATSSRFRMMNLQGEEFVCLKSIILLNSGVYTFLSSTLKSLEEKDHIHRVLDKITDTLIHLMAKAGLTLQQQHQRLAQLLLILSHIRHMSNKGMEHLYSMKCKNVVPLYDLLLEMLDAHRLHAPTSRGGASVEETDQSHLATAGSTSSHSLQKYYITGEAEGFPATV
# procedure text: qHTS assay to identify small molecule agonists of the estrogen receptor alpha (ER-alpha) signaling pathway using the BG1 cell line (AID 743079); further: nearly all actives have a fitted effect of over 20% in size; on activation: on the % scale 0 is the no-effect control and ±100 the full control effect
# study conditions: BG1Luc4E2 cells, ERE-luciferase agonist, 22 h; series mostly up to 70.3 µM
Inconclusive results are not listed. Calls of active or inactive are those of the source. The call rests on the fitted dose curve; in most records, active means well fitted activation curve with a large enough effect in the repeat runs; inconclusive means weak or mixed curves, or effect the other way; inactive means no such curve, though single readings can be large or run the other way.
Parameter call: string, one of active, inactive

Past entries and their recorded results:
{"columns": ["compound", "tested system", "class name"],
 "data": [
  ["CC1=CCC(=C(C)C)CC1", "Estrogen receptor (Homo sapiens) (UniProt P03372)", "active"],
  ["CCC(CC)(CC(=O)Nc1cccc(/C=C/c2nc(C3CCC3)cs2)c1)C(=O)O", "Estrogen receptor (Homo sapiens) (UniProt P03372)", "inactive"]
]}

Kindly provide the recorded test outcome for the following compound: CCCCN(CCCC)CC(O)c1cc(Cl)cc2c1-c1ccc(Cl)cc1/C2=C/c1ccc(Cl)cc1 (stereo not drawn) active
